tested on: Plasmodium berghei; test: Antimalarial activity against Plasmodium berghei infected in mouse assessed as change in mean survival time at 320 mg/kg, sc; format: functional; conditions: route subcutaneous
quantity measured: MST
Give the number first and the unit second.

Given CCCCN(CCCC)CC(O)c1cc(-c2ccc(C)cc2C)nc2c1ccc1ccccc12.Cl (stereo unspecified) , state its recorded MST.
4.6 days

Given the compound CCCCN(CCCC)CC(O)c1cc(C(C)(C)C)nc2c1cc(C)c1ccccc12.O=C(O)C(=O)O (stereo unspecified) , what is its reported MST?
3.5 days

Name the reported MST value associated with the compound CCCCN(CCCC)CC(O)c1c(C)cnc2c1cc(Cl)c1ccccc12.Cl (stereo unspecified)
12.9 days

Recorded MST for CCCCN(CCCC)CC(O)c1c(C)cnc2c1ccc1ccccc12.Cl (stereo unspecified) , please?
2.9 days

Which measured MST value corresponds to CCCCN(CCCC)CC(O)c1cc(C(C)(C)C)nc2c1ccc1ccccc12.O=C(O)C(=O)O (stereo unspecified) ?
1.2 days

Which MST is reported for this compound? CCCCN(CCCC)CC(O)c1c(C)cnc2c1ccc1cccc(Cl)c12.Cl (stereo unspecified)
6.2 days
